Molecular target: Alpha-1D adrenergic receptor (Homo sapiens, UniProt P25100)
Sequence (P25100 whole entry): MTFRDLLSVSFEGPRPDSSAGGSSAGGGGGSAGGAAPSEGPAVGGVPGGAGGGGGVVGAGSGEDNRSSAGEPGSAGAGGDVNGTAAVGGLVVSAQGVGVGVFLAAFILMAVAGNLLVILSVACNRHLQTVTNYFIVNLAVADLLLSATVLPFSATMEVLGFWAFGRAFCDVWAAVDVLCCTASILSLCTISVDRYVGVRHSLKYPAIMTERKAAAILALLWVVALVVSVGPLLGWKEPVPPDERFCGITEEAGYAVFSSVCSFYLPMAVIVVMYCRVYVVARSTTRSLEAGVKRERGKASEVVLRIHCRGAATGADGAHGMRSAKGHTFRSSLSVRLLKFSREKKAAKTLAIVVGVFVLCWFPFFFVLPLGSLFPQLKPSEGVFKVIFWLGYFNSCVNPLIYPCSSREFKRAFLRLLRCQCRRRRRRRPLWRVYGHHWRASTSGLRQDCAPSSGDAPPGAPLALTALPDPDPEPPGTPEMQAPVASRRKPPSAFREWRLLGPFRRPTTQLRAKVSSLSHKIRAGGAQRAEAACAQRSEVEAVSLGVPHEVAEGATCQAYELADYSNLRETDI
Measured Ki values are reported for all entries that follow.
measure: Ki (nM)

                                   molecule  data_value
0  CC1=C(C(N)=O)C(c2ccc([N+](=O)[O-])cc2)C(C(=O)NCCCN2CCC(c3ccccc3)(c3ccccc3)CC2)=C(C)N1 (single isomer, unassigned; (-))         224
1  CO/C(O)=C1\C(C)=NC(C)=C(C(=O)N(C)CCCN2CCC(c3ccccc3)(c3ccccc3)CC2)C1c1ccc([N+](=O)[O-])cc1 (centres undefined)         501
2  CO/C(O)=C1\C(C)=NC(C)=C(C(=O)NCCCN2CCC(c3ccccc3)(c3ccccc3)CC2)C1c1ccc(C#N)cc1 (centres undefined)         380
3  CC1=C(C(N)=O)C(c2ccc([N+](=O)[O-])cc2)C(C(=O)NCCCN2CCC(c3ccccc3)(c3ccccc3)CC2)=C(C)N1 (single isomer, unassigned; (+))         398

Each recorded value in this set is attributed to ChEMBL document CHEMBL1131023.
